Reported soluble fraction (log2) values are given for each entry in this list.
methodSummary: soluble fraction after stress (log2 fold change); higher = more stays soluble; pooled small domains, quantitative proteomics
measurementContext: stress: pH 4

Consider the reported soluble fraction (log2) for these sequences:
>  <sequenceRecord>
HMIVDYPSFVGKTKQELEKWAKENNIIIRYRQLSVTASDKVKAQLPATTTYKRIMKGSSIEVELEL

>  <quantity>
soluble fraction (log2)

>  <assayResult>
-0.749

$$$$
>  <sequenceRecord>
HMSERVVEIDPSQLRPGLFIRLPSGWMNHPFLFNQFRINSAEQVEIIQKLGLKTVQYLPERSSTQALPRA

>  <quantity>
soluble fraction (log2)

>  <assayResult>
-0.644

$$$$
>  <sequenceRecord>
HMKQLRVLGIVKAGSILKNSDGSIEFVIEDSGKSLLVKYKGVIPDIFKDGVEAVVEGDLRGSVFNADKLF

>  <quantity>
soluble fraction (log2)

>  <assayResult>
-0.2

$$$$

Request: What does the data say about its soluble fraction (log2)? Entry: HMGTMKGFVDGSSVHLRSGPSLSESIRAKVVKGQTLYITERRGDWYRATVHGGGEGWIHTSLVKLAG
Response: 0.261

Request: What does the data say about its soluble fraction (log2)? Entry: HMLPDLLNGRVIPSPEKVIRARLNRGVWELLVQWVGRAPSDATWENLLEFKSAYPSVQLEDALF
Response: -1.1

Request: What does the data say about its soluble fraction (log2)? Entry: HMEISTEVPLRGGTISEEALEALNRLPGVTASNIDGKSISVDVADNAELRVSDINQVLAVHSPDTRV
Response: -0.707

Request: What does the data say about its soluble fraction (log2)? Entry: HMHPEETVNLILDAAFRLFLEKGYEHTSIQDIIGQLGGLSKGAIYHHFNSKEDILIAVTDRMTA
Response: -1.67

Request: What does the data say about its soluble fraction (log2)? Entry: HMKKVIKIEENVSLQKLAALMSLKVTDVLMRLLSMGMSGVNINSTIDADTAKILASEFGWTVED
Response: -0.669

Request: What does the data say about its soluble fraction (log2)? Entry: HMLAAAVVVYATDKVNVRAEASETADVIGQLEAGSQTTRLEDKDGWSRIDYSNGTQGYMKSEFLSTEAPT
Response: -0.622

Request: What does the data say about its soluble fraction (log2)? Entry: HMKGLKERLLYFIEYKGLPVQMFEKIVGLSNAAVSKMGDNTRRSTIDKISKSFPELDVNWLLTGQGEMLSY
Response: 0.296

Request: What does the data say about its soluble fraction (log2)? Entry: HMSDSGLPLPRFVSLGDDRVNARAGPGFRFPINWVYLRKNFPVEVIDEFGHWRRIKDIDGIEGWIHLSML
Response: -0.734

Request: What does the data say about its soluble fraction (log2)? Entry: HMIKRDLAFSEFIAEVKAGQVREVTIKGNSISGNLNDGREFNTYAPNDPNLVKTLTDQGVLIRAIPLE
Response: 0.227

---

Reported soluble fraction (log2) values are given for each entry in this list.
methodSummary: soluble fraction after stress (log2 fold change); higher = more stays soluble; pooled small domains, quantitative proteomics
measurementContext: stress: pH 4
Just the number, please, no unit attached.

Consider the reported soluble fraction (log2) for these sequences:
>  <sequenceRecord>
HMTKDEFLTTLRTLIQDMPPEDRRDVMNYYTEYFEDAGPEREQEVLRQLGSPEQVAREVLGG

>  <soluble fraction (log2)>
-0.459

$$$$
>  <sequenceRecord>
HMKETIIPELLQNELDKNSELNDKFNTFSPYKQREFIEYIITAKQEKTQISRLQKVILMILEGRGLNN

>  <soluble fraction (log2)>
-0.491

$$$$
>  <sequenceRecord>
HMPETYVVFSKDGYANLRRGTTINSEILDVLDNGEYVTKLDEVGEWYRVEYADFDGGYIHKSQLKNI

>  <soluble fraction (log2)>
-1.58

$$$$

Request: What does the data say about its soluble fraction (log2)? Entry: HMSEMLPFDEARRQFERDYLVQLLKLTSGNVSQAARLARRNRTDFYALLGRHQLEPASFKPE
Response: -0.641

Request: What does the data say about its soluble fraction (log2)? Entry: HMSSIVLTARSGRAALAYRVKSIGVDLSKDQLDLVYKTFLGFADKKKEIIDTDIPQILKASGI
Response: -0.265

Request: What does the data say about its soluble fraction (log2)? Entry: HMLQADALADPVGWALRTLGFDLEAGTPERSAIQRSFRQSLIEAHPDHGGADDEAAQRIADITEARRILLA
Response: -0.858

Request: What does the data say about its soluble fraction (log2)? Entry: HMHPDALTEREREVLSLLADGLSNREIAARLVLALGTVKWYISVIYSKLGVTRRTQAIARARELHLV
Response: -0.41
